Documented IC50 across a set of compounds
Molecular target: Recombinant STAT3 protein (STAT3(G127-I722)) (Homo sapiens, UniProt P40763)
Construct: Recombinant STAT3 protein (STAT3(G127-I722))
Sequence (P40763 127-722): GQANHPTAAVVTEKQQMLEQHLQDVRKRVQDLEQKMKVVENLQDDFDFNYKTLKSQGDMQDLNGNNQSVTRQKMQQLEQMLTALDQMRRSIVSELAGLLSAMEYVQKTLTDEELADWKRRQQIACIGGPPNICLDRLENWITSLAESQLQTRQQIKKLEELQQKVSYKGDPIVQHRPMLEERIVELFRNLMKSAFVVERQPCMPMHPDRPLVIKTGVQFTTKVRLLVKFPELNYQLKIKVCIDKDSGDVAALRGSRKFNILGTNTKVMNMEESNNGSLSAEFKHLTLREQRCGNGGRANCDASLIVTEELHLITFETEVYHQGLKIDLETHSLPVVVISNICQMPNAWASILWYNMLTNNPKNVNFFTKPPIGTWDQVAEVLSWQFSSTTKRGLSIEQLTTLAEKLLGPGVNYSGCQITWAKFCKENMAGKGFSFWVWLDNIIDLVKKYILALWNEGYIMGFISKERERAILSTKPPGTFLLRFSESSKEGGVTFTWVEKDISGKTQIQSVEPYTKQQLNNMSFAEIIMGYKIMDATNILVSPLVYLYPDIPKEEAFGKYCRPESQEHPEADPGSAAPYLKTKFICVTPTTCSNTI
Test: STAT3 Fluorescence Polarization (FP) Assay
Details: STAT3(G127-I722) 25 nM, probe 5-FAM-GpYLPQTV-NH2 2 nM, 45-minute incubation

Below are worked cases with known answers.
>>> assay_result("CC(=O)N1CC[C@H]2CC[C@@H](C(=O)N(C)c3ccc(C(C)(C)C#N)cc3)N2C(=O)[C@@H](NC(=O)c2cc3cc(C(F)(F)P(=O)(O)O)ccc3s2)C1")
"> 10000 nM"
>>> assay_result("CC(=O)N1CC[C@H]2CC[C@@H](C(=O)N3C[C@@H](C#N)[C@H](c4cccnc4)C3)N2C(=O)[C@@H](NC(=O)c2cc3cc(C(F)(F)P(=O)(O)O)ccc3s2)C1 (relative stereo)")
"100 to 1000 nM"

Let us move to another entry and its IC50.
[Q] Given the entry CCN1CC[C@H]2CC[C@@H](C(=O)N3C[C@@H](C#N)[C@H](c4cc[nH]c(=O)c4)C3)N2C(=O)[C@@H](NC(=O)c2ccc3ccc(C(F)(F)P(=O)(O)O)cc3c2)C1 (single isomer, unassigned) [Compound 238] , report its measured IC50.
[A] 1000 to 10000 nM

Recorded values, source patent US20250179103A1.
